VALUE TYPE: melting point

Reference set, count: 2
{"SMILES REPRESENTATION": "COc1cc(C(=O)NS(C)(=O)=O)cc(OC)c1-c1ccc(C[C@H](NC(=O)c2c(Cl)cccc2Cl)C(=O)O)cc1", "VALUE TYPE": "melting point", "VALUE MEASURED": "277 to 278 °C"}
{"SMILES REPRESENTATION": "COc1cccc(OCCO)c1-c1ccc(C[C@H](NC(=O)c2c(Cl)cccc2Cl)C(=O)O)cc1", "VALUE TYPE": "melting point", "VALUE MEASURED": "158 to 159 °C"}

# melting point lookup, item `CON=C(C)c1cc(C[C@H](NC(=O)c2c(Cl)cccc2Cl)C(=O)O)ccc1-c1ccccc1OC` 106.8 °C

// returns reported melting point for input `COc1cc(NC(=O)Nc2ccccc2C)cc(OC)c1-c1ccc(C[C@H](NC(=O)c2c(Cl)cccc2Cl)C(=O)O)cc1` 194 to 195 °C
